tested on: ASPC1; experiment: Cytotoxicity against human AsPC1 cells after 48 hrs by MTT assay; assay type: functional, cell-based; conditions: ASPC1, 48 h
pIC50: −log10 of the molar value.
ENDPOINT LABEL: pIC50

chemical_smiles=C[C@]1(CO)CCC[C@]2(C)c3cc4c(cc3C=C[C@@H]12)C(=O)C=CC4=O cmp=< numeric_result=4.81
chemical_smiles=C[C@]1(C=O)CCC[C@]2(C)c3cc4c(cc3C(=O)C[C@@H]12)C(=O)C=CC4=O cmp== numeric_result=5.21

----------
experiment: Cytotoxicity against human NCI-ADR-RES cells after 48 hrs by MTT assay; format: functional, cell-based
pIC50: −log10 of the molar value.
Recorded pIC50 by entry
ENDPOINT LABEL: pIC50

chemical_smiles=C[C@]1(CO)CCC[C@]2(C)c3cc4c(cc3C=C[C@@H]12)C(=O)C=CC4=O endpoint_label=pIC50 result="< 4.81"
chemical_smiles=C[C@]1(C=O)CCC[C@]2(C)c3cc4c(cc3C(=O)C[C@@H]12)C(=O)C=CC4=O endpoint_label=pIC50 result="< 4.83"
